- MEASUREMENT_TARGET: potassium ion channel hERG (Homo sapiens, UniProt Q12809)
- Construct: expressed in transfected cells; host or cells: Chinese hamster ovary K1 (CHO)
- Sequence (Q12809 whole entry): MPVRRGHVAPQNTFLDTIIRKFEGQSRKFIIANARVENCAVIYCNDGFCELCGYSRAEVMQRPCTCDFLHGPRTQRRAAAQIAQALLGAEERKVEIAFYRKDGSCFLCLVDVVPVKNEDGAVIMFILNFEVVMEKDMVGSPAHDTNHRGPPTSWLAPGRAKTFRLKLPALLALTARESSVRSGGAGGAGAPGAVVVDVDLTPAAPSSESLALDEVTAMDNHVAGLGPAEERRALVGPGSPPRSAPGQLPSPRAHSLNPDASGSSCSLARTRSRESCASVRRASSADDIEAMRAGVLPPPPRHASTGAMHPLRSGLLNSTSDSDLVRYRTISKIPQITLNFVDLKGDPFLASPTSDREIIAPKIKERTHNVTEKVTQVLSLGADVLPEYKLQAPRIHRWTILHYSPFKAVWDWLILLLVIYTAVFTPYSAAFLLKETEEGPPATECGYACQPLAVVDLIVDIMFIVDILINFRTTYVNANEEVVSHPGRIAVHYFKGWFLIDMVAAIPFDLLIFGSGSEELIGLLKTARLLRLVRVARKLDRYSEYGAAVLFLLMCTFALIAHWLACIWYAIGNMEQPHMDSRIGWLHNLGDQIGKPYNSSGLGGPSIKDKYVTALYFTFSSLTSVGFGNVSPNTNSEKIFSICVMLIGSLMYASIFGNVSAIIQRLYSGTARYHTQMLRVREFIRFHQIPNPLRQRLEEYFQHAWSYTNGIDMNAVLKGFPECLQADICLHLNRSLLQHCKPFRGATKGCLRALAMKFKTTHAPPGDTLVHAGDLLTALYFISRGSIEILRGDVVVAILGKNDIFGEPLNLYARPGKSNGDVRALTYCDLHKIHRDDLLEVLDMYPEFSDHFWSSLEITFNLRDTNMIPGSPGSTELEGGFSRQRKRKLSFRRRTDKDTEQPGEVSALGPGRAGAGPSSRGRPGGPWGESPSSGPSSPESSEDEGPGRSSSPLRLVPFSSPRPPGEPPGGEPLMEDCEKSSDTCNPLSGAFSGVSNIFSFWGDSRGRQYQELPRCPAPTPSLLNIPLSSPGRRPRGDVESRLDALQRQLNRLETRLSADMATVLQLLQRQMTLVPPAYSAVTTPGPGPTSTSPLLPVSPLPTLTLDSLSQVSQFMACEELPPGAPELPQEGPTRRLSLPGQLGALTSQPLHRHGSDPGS
- PROTOCOL_DETAILS: Assay 5 hERG assay (patch clamp, CHO cells over-expressing hERG)
- Type: cell-based
- CONDITION: SyncroPatch 384PE, room temperature, geometric mean, read-out: Assay 5 (hERG Hu CHO if EPh CR-Syncro) GMean IC50
REPORTED_ENDPOINT: IC50 (µM)

>>> print(df.to_string())
                                   molecule                        measurement_target  quantity_unit  value_operator  observed_measurement
0  O=c1c(Cl)cccn1-c1ccc(N[C@H]2CC[C@H](Nc3ncc(C4CC4)nn3)C2)nc1 [Example 55]  potassium ion channel hERG (Homo sapiens, UniProt Q12809)             µM               =                  30.3
1  Cn1cccc(-c2ccc(N[C@H]3CC[C@H](Nc4ncc(C5CC5)nn4)C3)nc2)c1=O [Example 60]  potassium ion channel hERG (Homo sapiens, UniProt Q12809)             µM               =                    21
2  Cc1cnc(N[C@H]2CC[C@H](Nc3ccc(-n4c(=O)n(C)c5cc(C#N)cnc54)cn3)C2)nn1 [Example 214]  potassium ion channel hERG (Homo sapiens, UniProt Q12809)             µM               >                  40.1
3  Cc1cnc(N[C@H]2CC[C@H](Nc3ccc(-c4ccccn4)cn3)C2)nn1 [Example 309]  potassium ion channel hERG (Homo sapiens, UniProt Q12809)             µM               =                  11.4
4  Cc1cnc(N[C@H]2CC[C@H](Nc3ccc(-n4ccccc4=O)cn3)C2)nn1 [Example 67]  potassium ion channel hERG (Homo sapiens, UniProt Q12809)             µM               >                    40
